Provenance of the data: PubChem BioAssay (NCI)

# System: HCT-116 colon
# test name: NCI-60 one-dose screen, 48 h
# conditions used: 10 µM unless noted
Compounds without any hit were thinned out: in the full panel of roughly 83,000, 20% have a hit. The source made the active and inactive calls. The calls were made as follows: active = growth percent below 10; inactive = the rest.
Could you please pick one outcome from this set? class 1 = active, class 0 = inactive

The following compounds have reported results that may help.
Cc1ccc(-c2nc(N3CCN(CC(=O)Nc4ccc(Cl)cc4)CC3)c3ccccc3n2)cc1 :: class 0
O=C(Cc1ccc(F)c(Cl)c1)Nc1cc(C2(C(F)(F)F)CC2)nn1CC1CCCCC1 :: class 1
CCOC(=O)c1sc2ncc(-c3ccc(OC)cc3)n2c1C :: class 0
N#Cc1c(Nc2cccc(Cl)c2)sc(C(=O)c2cc3cc(Cl)ccc3o2)c1N :: class 0
COc1ccc(NC(=O)n2nc(/C=C\c3ccc(O)c(OC)c3)cc2/C=C\c2ccc(O)c(OC)c2)cc1 :: class 1

In: Called result for Nc1cc2c(cc1Br)-c1cc(Cl)ccc1C2=O
Out: class 0

In: Called result for NC(=O)Nc1ccc2ncnc(Nc3ccc(Cl)cc3)c2c1
Out: class 0

In: Called result for O=C1/C(=C/c2ccccc2[N+](=O)[O-])Oc2ccc(O)c(O)c21
Out: class 0

In: Called result for CCOC(=O)c1c(C)oc2ncnc(N3CCN(C(=O)COc4ccc(C(C)(C)C)cc4)CC3)c12
Out: class 0

In: Called result for CN(C)CC#Cc1ccc2ncc(C#N)c(Nc3ccc(F)c(Cl)c3)c2c1
Out: class 0

In: Called result for CC(=O)OC[C@H]1OC(Sc2sc(C(=O)c3ccc(Br)cc3)c(N)c2-c2nc3ccccc3s2)[C@H](OC(C)=O)[C@@H](OC(C)=O)[C@H]1OC(C)=O (stereo not given in full)
Out: class 0
